- PROTOCOL DETAILS: chemical genetic growth profiling, strain panel (AID 1159580);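 further: tested at 20 µM; growth read once vehicle control cultures reached saturation at 30 °C; 1 = growth at the plate median or of vehicle wells; lower values mean less growth of the strain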
- PARTICULARS: S. cerevisiae deletion strains, growth OD, locus YPR167C, strain met16, hits give low values
The whole screen tested about 5,500 compounds, of which about 2,000 (36%) were called active. Not shown: some 18% with an inconclusive outcome. The list shows a part of the results.
MEASUREMENT TYPE: normalized growth

Given `CCn1cc(C(=O)O)c(=O)c2cc3c(cc21)OCO3` , respond with its normalized growth.
0.985 (inactive)

Using the record for Nc1nc2c(c(=O)[nH]1)N(C=O)C(CNc1ccc(C(=O)N[C@@H](CCC(=O)O)C(=O)O)cc1)CN2 (some centres undefined) , state its measured normalized growth.
0.986 (inactive)

Supply measured normalized growth of COc1cc(C)c2c(c1C=O)Oc1c(c(C)c(O)c3c1C(O)OC3=O)OC2=O (centres undefined) in your reply.
1.02 (inactive)

Determine its reported normalized growth: `CC1=C(/C=C/C(C)=C/C=C/C(C)=C/C(=O)O)C(C)(C)CCC1`
1.03 (inactive)

Consider the compound `CC[C@]12CCCN3CCc4c(n(c5ccccc45)C(=O)C1)[C@@H]32` and give its recorded normalized growth.
0.974 (inactive)

Respond only with normalized growth recorded for `CCOC(=O)C1=C[C@]2(CC)CCCN3CCc4c(n1c1ccccc41)[C@@H]32`
0.989 (inactive)
